Tested on: THRa homodimer (NR concentration 90 nM)
Protocol Notes: PBM binding z-score (relative to random genomic background probes); higher = stronger binding; sequences stand for … in GC…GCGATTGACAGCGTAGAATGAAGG
Threshold rule: PBM binding z-score greater than or equal to 2 is Satisfied; below that, Not satisfied.

Answered cases to consult:
IN: Could you please find out whether CGAACTAGGTCAAGGACAGTGAATCTCCGCACGC has PBM binding z-score that meets 2 or exceeds it?
OUT: Satisfied

IN: Could you please find out whether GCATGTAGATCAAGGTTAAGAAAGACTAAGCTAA has PBM binding z-score that meets 2 or exceeds it?
OUT: Not satisfied

IN: Could you please find out whether ATCTCTAGGTAAAAGTTCAGTGACTCCCGAGGAT has PBM binding z-score that meets 2 or exceeds it?
OUT: Not satisfied

IN: Could you please find out whether AGAATGAGGGTACCAAAGATCAGGGAAACGCTTG has PBM binding z-score that meets 2 or exceeds it?
OUT: Not satisfied

IN: Could you please find out whether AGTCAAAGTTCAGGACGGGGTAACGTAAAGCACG has PBM binding z-score that meets 2 or exceeds it?
OUT: Not satisfied

Moving on to the next sequence.
IN: Could you please find out whether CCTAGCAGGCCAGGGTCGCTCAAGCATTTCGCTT has PBM binding z-score that meets 2 or exceeds it?
OUT: Not satisfied

----------
System: THRa homodimer (NR concentration 90 nM)
Protocol Notes: PBM binding z-score (relative to random genomic background probes); higher = stronger binding; sequences stand for … in GC…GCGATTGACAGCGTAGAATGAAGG
Assay Readout: PBM binding z-score
No unit in the answer, please; the number alone is enough.

Consider the worked cases shown below.
Entry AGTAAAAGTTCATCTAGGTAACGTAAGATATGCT — recorded PBM binding z-score = 0.0912

Entry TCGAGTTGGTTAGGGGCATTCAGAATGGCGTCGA — recorded PBM binding z-score = 0.169

Entry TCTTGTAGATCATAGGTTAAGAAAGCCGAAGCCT — recorded PBM binding z-score = -0.386

Entry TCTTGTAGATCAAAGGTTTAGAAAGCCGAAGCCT — recorded PBM binding z-score = -0.747

Entry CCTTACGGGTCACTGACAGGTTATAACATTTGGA — recorded PBM binding z-score = 0.436

More entries:
Entry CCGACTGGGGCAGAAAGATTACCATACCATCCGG — recorded PBM binding z-score = -0.569

Entry GGAACGAGGGCAGAGTTGATAGCATCTGTCGACG — recorded PBM binding z-score = -0.629

Entry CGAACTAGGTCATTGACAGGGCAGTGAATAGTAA — recorded PBM binding z-score = 0.623

Entry AGTCCAAGTTCAGGACGAGGTAACGTAAAGCACG — recorded PBM binding z-score = 1.65

Entry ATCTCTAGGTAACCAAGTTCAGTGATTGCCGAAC — recorded PBM binding z-score = 0.949

Entry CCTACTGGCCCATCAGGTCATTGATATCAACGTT — recorded PBM binding z-score = 3.04

Entry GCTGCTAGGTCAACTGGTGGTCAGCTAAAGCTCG — recorded PBM binding z-score = 0.794

Entry ACAGACAGGTGTTGAAGGTAACTCAGGCTATCAT — recorded PBM binding z-score = 0.073

Entry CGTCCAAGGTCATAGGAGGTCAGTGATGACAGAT — recorded PBM binding z-score = 3.25

Entry AATACAGGGTCATCGAAGGCCAGAGTACGCACAG — recorded PBM binding z-score = 1.43

Entry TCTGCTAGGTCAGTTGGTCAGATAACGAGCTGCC — recorded PBM binding z-score = 0.154

Entry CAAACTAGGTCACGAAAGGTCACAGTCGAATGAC — recorded PBM binding z-score = 3.05

Just for reference, the supplement of paper PMC6555819 is where these values come from.
